Documented IC50 across a set of molecules
Tested on: A-431
Experiment: Cytotoxicity against human A431 cells after 96 hrs by SRB colorimetric assay
Assay type: functional, cell-based
Conditions: A-431, 96 h
value.kind: IC50 (µM)

molecule="C=C(C)[C@@H]1CC[C@]2(C(=O)O)CC[C@]3(C)[C@H](CC[C@@H]4[C@@]5(C)CCC(=O)C(C)(C)[C@@H]5CC[C@]43C)[C@@H]12 [BETUNOLIC ACID]" reported_relation== test_result=3.26
molecule=C=C(C)[C@@H]1CC[C@]2(C(=O)OCC(CO)CO)CC[C@]3(C)[C@H](CC[C@@H]4[C@@]5(C)CC[C@H](O)C(C)(C)[C@@H]5CC[C@]43C)[C@@H]12 reported_relation=> test_result=100
molecule=C=C(C)[C@@H]1CC[C@]2(C(=O)OCC(N)(CO)CO)CC[C@]3(C)[C@H](CC[C@@H]4[C@@]5(C)CC[C@H](OC(C)=O)C(C)(C)[C@@H]5CC[C@]43C)[C@@H]12 reported_relation== test_result=2.54

====

Experiment: Cytotoxicity against human 518A2 cells after 96 hrs by SRB colorimetric assay
Format: functional, cell-based
Settings: 518A2, 96 h
value.kind: IC50 (µM)

compound_smiles=C=C(C)[C@@H]1CC[C@]2(C(=O)NC(CO)(CO)CO)CC[C@]3(C)[C@H](CC[C@@H]4[C@@]5(C)CC[C@H](O)C(C)(C)[C@@H]5CC[C@]43C)[C@@H]12 result_unit=µM reported_relation=> test_result=100
compound_smiles=C=C(C)[C@@H]1CC[C@]2(C(=O)OCC(CO)CO)CC[C@]3(C)[C@H](CC[C@@H]4[C@@]5(C)CC[C@H](O)C(C)(C)[C@@H]5CC[C@]43C)[C@@H]12 result_unit=µM reported_relation=> test_result=100
compound_smiles=C=C(C)[C@@H]1CC[C@]2(C(=O)NC(CO)(CO)CO)CC[C@]3(C)[C@H](CC[C@@H]4[C@@]5(C)CC[C@H](OC(C)=O)C(C)(C)[C@@H]5CC[C@]43C)[C@@H]12 result_unit=µM reported_relation== test_result=29.6
compound_smiles=C=C(C)[C@@H]1CC[C@]2(C(=O)OCC(N)(CO)CO)CC[C@]3(C)[C@H](CC[C@@H]4[C@@]5(C)CCC(=O)C(C)(C)[C@@H]5CC[C@]43C)[C@@H]12 result_unit=µM reported_relation== test_result=10.8
compound_smiles=C=C(C)[C@@H]1CC[C@]2(C(=O)O)CC[C@]3(C)[C@H](CC[C@@H]4[C@@]5(C)CC[C@H](OC(C)=O)C(C)(C)[C@@H]5CC[C@]43C)[C@@H]12 result_unit=µM reported_relation== test_result=4.65
compound_smiles=C=C(C)[C@@H]1CC[C@]2(C(=O)OCC(N)(CO)CO)CC[C@]3(C)[C@H](CC[C@@H]4[C@@]5(C)CC[C@H](O)C(C)(C)[C@@H]5CC[C@]43C)[C@@H]12 result_unit=µM reported_relation=> test_result=100
compound_smiles=C=C(C)[C@@H]1CC[C@]2(C(=O)OCC(N)(CO)CO)CC[C@]3(C)[C@H](CC[C@@H]4[C@@]5(C)CC[C@H](OC(C)=O)C(C)(C)[C@@H]5CC[C@]43C)[C@@H]12 result_unit=µM reported_relation== test_result=2.87
compound_smiles=C=C(C)[C@@H]1CC[C@]2(C(=O)O)CC[C@]3(C)[C@H](CC[C@@H]4[C@@]5(C)CCC(=O)C(C)(C)[C@@H]5CC[C@]43C)[C@@H]12 result_unit=µM reported_relation== test_result=10.4

The reported numbers originate from ChEMBL document CHEMBL1208671.
